Assay: amyloid nucleation score (Sup35N fusion, yeast selection) (log enrichment); library NNK1; higher = more nucleation; inactive = no reads after selection;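 also: zero at mode of non-aggregating sequences after 7 days selection at 30°C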
reported-property: amyloid nucleation score

# sequence-string, reported-property, result
records = [
    ("FRHYTANYWYISRRRRMLSV", "amyloid nucleation score", "inactive"),
    ("NYQWIRIVIMYVLSMTASLS", "amyloid nucleation score", "inactive"),
    ("KRWTKNFDCFQTVMHIYCSQ", "amyloid nucleation score", "inactive"),
]

---

Experiment: amyloid nucleation score (Sup35N fusion, yeast selection) (log enrichment); library NNK1; higher = more nucleation; inactive = no reads after selection

# substance, amyloid nucleation score
data = [
    ("SICTCKWYVSVWWAIWRINN", 1.59),
    ("LLLYSGEFNS", -0.433),
    ("SFSFKCDYYVPCRRYIFVIL", -1.3),
    ("GELCMLSVW", 0.729),
    ("GSVSVSQQS", -1.4),
    ("VLGDSARVCSGDGV", 0.494),
    ("QKSLSVEPDAH", -0.557),
    ("IWDHCFGPVKCCNIWGKEVG", 5.1),
    ("PKFCWAWSYALMGNKNLKSC", -0.715),
    ("GFGSELRYYYMSRGMYRIRP", 0.089),
    ("RFARHCSRIS", 0.769),
    ("NYYFAKSLLHI", 1.27),
    ("QAKGLALLCV", -2.17),
    ("RSYLCDREYCVFGFCLGIYS", 3.44),
    ("GISWSRGWSAFLKCDRRTGC", 0.894),
    ("RSRSGC", 0.441),
    ("IEWRVKLRLLRCQYID", -0.507),
    ("INYNWCQTRG", -0.867),
    ("VRADFALTWLLGVCRVWCCR", 0.247),
    ("TTMILWQTQYDYLG", -0.247),
    ("LTFRRRYRWGQGTCINFCRR", 0.082),
    ("SNIASNKKVIMINHFKGFSL", 3.58),
    ("HQIYVLATETNSPMLRWKLQ", 0.879),
    ("GIRPEN", -0.521),
    ("HLGAYYTGI", 0.984),
    ("PDSARSECAGRVNLFVFRAR", 0.559),
    ("DLFCFELVDHTLLLGWTTVQ", -0.564),
    ("YSGHWPWMQ", -1.17),
    ("VAQLRIKVCKDPGTWLQVHH", 1.48),
    ("YGRKISYLKFLKCVDVVLGW", 0.303),
    ("LLRCPYLNFGASMYLIRFCS", 0.404),
    ("RRLFMGPI", 0.802),
    ("SETFEHRLRD", -0.437),
    ("CLSRKSWFWHGRWESVSCHP", -0.018),
    ("NLTSVPYMPLECDYHARSYF", -1.55),
    ("KASMMPSDSSCLI", 0.911),
    ("SRWGPRL", -0.494),
    ("KPRVRAAGLCSLQFWALIAV", -0.275),
    ("GYSLYRM", 6.75),
    ("LHIFLTLHNQHVWARNGGKL", 0.603),
    ("QHVFWIYPLPTLSSYGTARS", -0.227),
    ("VYSMWTERQFLGMILGGEAG", -0.091),
    ("ENIDVENQLVYLFKICFGSM", 3.09),
    ("LALMFFNLKSCIFMSMWLFT", 1.65),
    ("CVARIDCEWIKPLSLHCSCT", -0.499),
    ("RRSESCMFYVMWYGNRYLEG", 0.638),
    ("MMSSFDVWDS", -0.077),
    ("PLLVYIFNFHCYHLVNAMTV", 2.2),
]

Attribution: the supplement of paper PMC12042874
